Tested on: CAKI-1 renal
TEST_PROTOCOL: NCI tumour cell line growth inhibition, 48 h
READOUT_NAME: TGI

> print(dat)
                                    molecule  readout.value
 1  CN1C(=O)C(O)CC1c1ccc(C(F)(F)F)cc1 (configuration not stated)       > 100 µM
 2    CC(=O)N(C(C)=O)c1c(N)n(C)c(=O)[nH]c1=O       > 100 µM
 3                CN(N=O)C(=O)NNC(=O)N(C)N=O       > 100 µM
 4     CCOC(=O)c1cnc2c(C)cc(C)cc2c1NCCCN(C)C       > 100 µM
 5              Oc1ccc(-c2nc3ccc(F)cc3s2)cc1          37 µM
 6           CN(C)C(=S)NC(=S)Nc1ccc2ccccc2c1        65.3 µM
 7  COc1ccc(Cc2nn(C3OC(COC(C)=O)C(OC(C)=O)C(OC(C)=O)C3OC(C)=O)c(=S)n(-c3ccc(OC)cc3)c2=O)cc1 (configuration not stated)       > 100 µM
 8          COc1ccc(-n2cnc3c(N)nc(N)nc32)cc1       > 100 µM
 9  CC(=O)/C(N=Nc1ccc(-n2c(C)nc3ccccc3c2=O)cc1)=C(/C)O       > 100 µM
10  O=S(=O)(Nc1cccc(Cl)c1)c1ccc(-c2cnc(C3CC3)o2)cc1          14 µM
11  O=C1c2ccccc2C(=O)c2[nH]c(Cc3ccccc3F)nc21       > 100 µM
12  COc1cc2c(cc1O)[C@@]1(Cc3ccc(OC)c(OC)c3)CCC(=O)N1CC2       > 100 µM

###

System: IGROV1 ovarian
TEST_PROTOCOL: NCI tumour cell line growth inhibition, 48 h; in the data active = GI50 below about 0.43 µM; inactive = the rest
Labels: active, inactive

> print(dat)
                                    compound   target.system  label.class
 1  O=C1/C(=C/c2ccc(Cl)cc2Cl)CN(S(=O)(=O)c2ccccc2)C/C1=C\c1ccc(Cl)cc1Cl  IGROV1 ovarian       active
 2  C=C1CC[C@@H]2C(C)(C)[C@H](O)CC[C@@]2(C)[C@@H]1COc1ccc2ccc(=O)oc2c1  IGROV1 ovarian     inactive
 3  Cc1ccc(C2CC(c3cccc(Nc4ccncc4)c3)=NN2c2cc(Cl)cc(Cl)c2)cc1 (centres undefined)  IGROV1 ovarian     inactive
 4  COC(=O)c1ccc2[nH]c(O)c(C(=Nc3ccc(N(C)C(=O)CN4CCN(C)CC4)cc3)c3cccc(OC)c3)c2c1  IGROV1 ovarian       active
 5  COc1ccc2c3c([nH]c2c1)C(=O)c1nc(C)ccc1C3=O  IGROV1 ovarian       active
 6  CCn1cc(C2NC(=O)c3ccccc3N2)c2cccc(C)c21 (centres undefined)  IGROV1 ovarian     inactive
 7         COc1cc(O)c2c3c(ccnc13)-c1ccccc1N2  IGROV1 ovarian     inactive
 8  COc1ccc(OC)c(N(CCN2C(=O)c3ccccc3C2=O)C(=O)CCl)c1  IGROV1 ovarian       active
 9    Cc1ccc(Cl)cc1Nc1nc(C(F)(F)F)ccc1C(N)=O  IGROV1 ovarian     inactive
10  O=C(c1ccccc1)N(C(=S)NCCc1ccc(Cl)cc1)c1ccc(Cl)cc1  IGROV1 ovarian     inactive
11  N[C@@H]1CCCC[C@@H]1N.O=P([O-])([O-])CNCP(=O)([O-])[O-].[Pt+2]  IGROV1 ovarian     inactive
12  COc1ccc2c(c1)c(-c1nonc1-c1cn(C)c3ccccc13)cn2C  IGROV1 ovarian     inactive
13  C=C1C(=O)O[C@H]2[C@H]1CC/C(COC(=O)NCc1ccc(Cn3c(=O)sn(CCCC)c3=O)cc1)=C\CC[C@@]1(C)O[C@@H]21  IGROV1 ovarian     inactive
14  COc1cccc(CNCCN2C(=O)c3ccc4c5c(ccc(c35)C2=O)C(=O)N(CCNCc2cccc(OC)c2)C4=O)c1  IGROV1 ovarian     inactive
